src = the supplement of paper PMC13094657

tested on: MDA-MB-231; assay: kynurenine production, fold change vs DMSO IFNg/TNF control; higher = more kynurenine produced (less inhibition); conditions: pre-treatment time: 18 h then 24 h IFNg/TNF
Please provide measured kynurenine production for the entries that follow.
Give bare numbers.

Worked set:
compound="CC(=O)O[C@@]12C[C@@H](C)[C@@]3(O)[C@@H](C=C(CO)C[C@]4(O)C(=O)C(C)=C[C@@H]34)[C@@H]1C2(C)C [Prostratin] (compound dose: 10 uM)" numeric_value=0.737
compound="CC1=C[C@]23C(=O)[C@@H](C=C(COC(=O)c4ccccc4)[C@@H](O)[C@]2(O)[C@H]1OC(=O)c1ccccc1)[C@H]1[C@@H](C[C@H]3C)C1(C)C [Ingenol 3,20-dibenzoate] (compound dose: 10 uM)" numeric_value=0.641
compound="CN1[C@@H]2CC(O)C[C@H]1[C@@H]1O[C@@H]12 (stereo partly specified) [Scopine] (compound dose: 10 uM)" numeric_value=0.798
compound="C=C[C@@H]1C2=CCOC(=O)C2=CO[C@H]1O[C@@H]1O[C@H](CO)[C@@H](O)[C@H](O)[C@H]1O [Gentiopicroside] (compound dose: 10 uM)" numeric_value=0.904

Provide kynurenine production for all items below, preserving their order.
1. COc1cc(C[C@H]2C(=O)OC[C@@H]2Cc2ccc3c(c2)OCO3)cc(OC)c1OC [Yatein] (compound dose: 10 uM)
2. COc1cc([C@@H]2c3cc4c(cc3C[C@H]3COC(=O)[C@@H]32)OCO4)cc(OC)c1OC [4-deoxypodophyllotoxin] (compound dose: 10 uM)

**A:**
1. 0.843
2. 0.623

Provide kynurenine production for all items below, preserving their order.
1. CC(C)=CCC[C@](C)(O)[C@H]1CC[C@]2(C)[C@@H]1[C@H](O)C[C@@H]1[C@@]3(C)CC[C@H](O)C(C)(C)[C@@H]3[C@@H](O[C@@H]3O[C@H](CO)[C@@H](O)[C@H](O)[C@H]3O)C[C@]12C [Ginsenoside Rh1] (compound dose: 10 uM)
2. COc1cc(C(=O)O[C@H]2[C@@H]3C=CO[C@@H](O[C@@H]4O[C@H](CO)[C@@H](O)[C@H](O)[C@H]4O)[C@@H]3[C@@]3(CO)O[C@@H]23)ccc1O [Picroside II] (compound dose: 10 uM)

**A:**
0.852
0.919

---

test system: MDA-MB-231; assay: cell viability relative to vehicle unstimulated control (fraction); higher = more viable cells; conditions: pre-treatment time: 18 h then 24 h IFNg/TNF
Where a name gives a salt, the structure may show the parent alone.
Readout kind: cell viability
Numbers only.

compound="CC1=C[C@]23C(=O)[C@@H](C=C(COC(=O)c4ccccc4)[C@@H](O)[C@]2(O)[C@H]1OC(=O)c1ccccc1)[C@H]1[C@@H](C[C@H]3C)C1(C)C [Ingenol 3,20-dibenzoate] (compound dose: 10 uM)" readout_kind="cell viability" numeric_value=1.05
compound="C/C=C(/C)C(=O)O[C@H]1[C@@H]2[C@H](C)C(=O)O[C@@H]2C[C@@H](C)[C@@H]2C=CC(=O)[C@]21C [Brevilin A] (compound dose: 10 uM)" readout_kind="cell viability" numeric_value=0.75
compound="C=C1CCC2C(/C=C(\\C)C(=O)C3(OC(C)=O)CC(C)C(OC(=O)c4ccccc4)C3C1OC(C)=O)C2(C)C (configuration not stated) [Euphorbia factor L3] (compound dose: 10 uM)" readout_kind="cell viability" numeric_value=1.05
compound="COc1ccc2c(c1O)-c1c(O)c(OC)cc3c1[C@H](C2)N(C)CC3 [Corytuberine] (compound dose: 10 uM)" readout_kind="cell viability" numeric_value=0.829

Provide cell viability for all items below, preserving their order.
1. C[C@@H]1C(=O)O[C@H]2[C@H](O)[C@@]34O[C@@H]5OC(=O)[C@H](O)[C@@]56[C@H](C(C)(C)C)[C@H](O)C(OC3=O)[C@]64[C@@]12O (some centres not stated) [Ginkgolide C] (compound dose: 10 uM)
2. COc1cc([C@@H]2c3cc4c(cc3C[C@H]3COC(=O)[C@@H]32)OCO4)cc(OC)c1OC [4-deoxypodophyllotoxin] (compound dose: 10 uM)
3. CC(C)[C@]12CC(=O)[C@H](C)[C@H]1C2 [α-Thujone] (compound dose: 10 uM)
4. O=C(/C=C/c1ccccc1)OC[C@H]1O[C@@H](O[C@@H]2OC=C[C@H]3[C@H](O)[C@@H]4O[C@]4(CO)[C@@H]23)[C@H](O)[C@@H](O)[C@@H]1O [Picroside I] (compound dose: 10 uM)

**A:**
1: 0.97; 2: 0.814; 3: 1.05; 4: 0.964

Provide cell viability for all items below, preserving their order.
1. O=C1C=C2C=C[C@@H]3C[C@@]2(O1)[C@H]1CCCCN31 [Securinine] (compound dose: 10 uM)
2. CN1[C@@H]2CC[C@H]1C[C@@H](OC(=O)C(CO)c1ccccc1)C2 (some centres not stated) [Atropine sulfate] (compound dose: 10 uM)
3. COc1cc(C[C@H]2C(=O)OC[C@@H]2Cc2ccc3c(c2)OCO3)cc(OC)c1OC [Yatein] (compound dose: 10 uM)

**A:**
0.89
0.996
0.996

Looking up O=C(O)c1ccc(=O)[nH]c1 [6-hydroxynicotinic acid] (compound dose: 10 uM) , I found its cell viability recorded as 0.951
